Target: N-acylethanolamine-hydrolyzing acid amidase (Homo sapiens, UniProt Q02083)
Sequence (Q02083 29-125 limits assumed): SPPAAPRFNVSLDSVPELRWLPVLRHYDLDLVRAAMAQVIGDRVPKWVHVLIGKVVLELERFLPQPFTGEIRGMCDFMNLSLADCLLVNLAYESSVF
Sequence (Q02083 126-359 limits assumed): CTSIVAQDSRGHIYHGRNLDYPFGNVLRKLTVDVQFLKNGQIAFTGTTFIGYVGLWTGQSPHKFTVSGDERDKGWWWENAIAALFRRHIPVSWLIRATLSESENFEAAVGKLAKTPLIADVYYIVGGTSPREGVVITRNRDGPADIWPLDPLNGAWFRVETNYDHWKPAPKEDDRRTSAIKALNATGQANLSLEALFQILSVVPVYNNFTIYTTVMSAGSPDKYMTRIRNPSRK
Assay: Inhibition of activated human NAAA using fluorogenic PAMCA and N-4-methylcoumarin as substrate incubated for 90 mins by fluorescence based assay
Measurement label: pIC50
# log scale: pIC50 equals minus log10 of the concentration in mol/L

In [3]: df
Out[3]:
                                   compound  measurement_label  numeric_readout
0  COc1cccc(-c2ccc(COC3CN(C#N)C3)c(C(F)(F)F)c2)c1              pIC50             9.07
1  COc1cccc(-c2ccc(C(OC3CN(C#N)C3)c3ccccc3)cc2)c1 (stereo unspecified)              pIC50             7.94
2    COc1cccc(-c2ccc(COC3CN(C#N)C3)cc2)c1OC              pIC50             9.06
3        COc1ccncc1-c1ccc(COC2CN(C#N)C2)cc1              pIC50             7.40
4          N#CN1CC(OCc2ccc(-c3cccnc3)cc2)C1              pIC50             7.92

Input line: Return reported pIC50. Input compound: COc1ccc(-c2ccc(COC3(c4cccnc4)CN(C#N)C3)c(F)c2)cc1F
Output line: 8.34

Input line: Return reported pIC50. Input compound: COc1cccc(-c2ccc(S(=O)(=O)NC3(C)CN(C#N)C3)cc2)c1
Output line: 8.49

Input line: Return reported pIC50. Input compound: N#CN1CC[C@@H](OCc2ccc(-c3ccccc3)cc2)C1
Output line: 7.58

Input line: Return reported pIC50. Input compound: N#CN1CC(OCc2ccc(-c3ccccc3)cc2)C1
Output line: 8.55

Input line: Return reported pIC50. Input compound: N#CN1CC(Oc2ccc(-c3ccccc3)cc2)C1
Output line: 7.54

Input line: Return reported pIC50. Input compound: N#CN1CC(OCc2ccc(Oc3ccccc3)cc2)C1
Output line: 8.96

----------
Assay: Half life in human plasma by HPLC analysis
Rule: half-life below 200 min gives met. Equal to or above 200 min gives not met.

                                   compound  answer_label
0  COc1cccc(-c2ccc(S(=O)(=O)NC3(C)CN(C#N)C3)cc2)c1       not met
1  COc1cccc(-c2ccc(C(=O)N3CCC34CN(C#N)C4)cc2)c1       not met
2  COc1cccc(-c2ccc(C(=O)NC3(C)CN(C#N)C3)cc2)c1       not met
3  COc1ccc(-c2ccc(COC3(C4CC4)CN(C#N)C3)c(F)c2)cc1F           met

Proceed to the following item.
Input line: Report whether reported half-life is lower than 200 min (strictly) for COc1cccc(-c2ccc(S(=O)(=O)N3CCC34CN(C#N)C4)cc2)c1
Output line: met

----------
Molecular target: UniProt Q02083
Experiment: Inhibition of NAAA (unknown origin)
Measurement label: pIC50
# log scale: pIC50 equals minus log10 of the concentration in mol/L

Input line: Return reported pIC50. Input compound: C[C@H]1[C@H](NC(=O)OCCCCC2CCCCC2)C(=O)N1c1cccc(S(C)(=O)=O)c1
Output line: 8.22

----------
Species: Homo sapiens
Experiment: Selectivity index, ratio of IC50 for human Cathepsin K using […] as substrate preincubated with enzyme for 90 mins followed by substrate addition by fluorimetry analysis to IC50 human NAAA using fluorogenic PAMCA and N-4-methylcoumarin as substrate incubated for 90 mins by fluorescence based assay
This section presents compounds with their documented Ratio IC50 values.

>>> df
                                   compound  result
0   COc1cccc(-c2ccc(COC3(C)CN(C#N)C3)cc2)c1      50
1  COc1cccc(-c2ccc(S(=O)(=O)N3CCC34CN(C#N)C4)cc2)c1   > 100
2  COc1cccc(-c2ccc(S(=O)(=O)NC3(C)CN(C#N)C3)cc2)c1   > 100

We now examine a further compound.
Input line: Return reported Ratio IC50. Input compound: COc1cccc(-c2ccc(C(=O)N3CCC34CN(C#N)C4)cc2)c1
Output line: > 100
